- Test system: UACC-257
- Protocol summary: NCI tumour cell line growth inhibition, 48 h
Calls of active or inactive are those of the source. Cut-off read from the data, not from the text of the source: active = GI50 up to about 1.1 µM and inactive = higher.
Measurement label: GI50

Input: For the molecule `O[C@H]1[C@H](O)[C@@H](O)[C@@]2(O)C[C@@H](O)[C@@H]1N2` , what GI50 is on record?
Output: > 100 µM (inactive)

Input: # GI50 lookup, item `O=C1C[C@H]2CCCN2[C@@H](c2ccccc2)C1`
Output: > 100 µM (inactive)

Input: Please report the recorded GI50 for `CCS(=O)(=O)c1c2cc(OC)ccc2nc2ccc(OC)cc12` .
Output: > 100 µM (inactive)

Input: Tell me the measured GI50 of `Nc1c2ccccc2nc2c(C(=O)Nc3ccc(S(N)(=O)=O)cc3)cccc12` , please.
Output: > 100 µM (inactive)

Input: Can you look up the measured GI50 of `Cc1nc(O)nc2nc3ccc(Cl)cc3c(N(CCO)CCO)c12` for me?
Output: > 100 µM (inactive)

Input: Name the reported GI50 value associated with the molecule `CCOC(=O)C1(C(=O)OCC)C(C(C)(C)C)=C(C)c2ccccc21`
Output: 12.2 µM (inactive)

Input: Would you mind telling me what GI50 value was observed for `O[C@H]1[C@H](O)[C@H](O)CN2CCC[C@@H](O)[C@H]12` ?
Output: > 100 µM (inactive)

Input: Requested read-out: GI50. Entry: `CN(C)C(=S)/N=c1\ss/c(=N\C(=S)N(C)C)n1C1CCCCC1`
Output: > 100 µM (inactive)

Input: Consider the molecule `Nc1ncnc2c1ncn2[C@@H]1C[C@@H]1CO` and give its measured GI50.
Output: > 100 µM (inactive)

Input: Consider the molecule shown here: `O=[N+]([O-])c1ccc(CNC2=NNS(=O)(=O)c3ccccc32)cc1` What is its recorded GI50?
Output: > 100 µM (inactive)

Input: Dear colleague, I am looking for the recorded GI50 of the following molecule: `CC1=C(C(=O)Nc2ccccc2C)C(c2ccccc2)C(C(=O)Nc2ccccc2C)=C(C)N1`
Output: 37.8 µM (inactive)

Sourced from ChEMBL document CHEMBL1201862
